system: ryegrass, Italian; assay: Test A postemergence; format: in vivo, Lolium multiflorum; conditions: 500 g ai/ha, postemergence, 10 days, visual injury, 0 to 100 scale (0 no effect, 100 complete control)
Quick reference for Plant response rating, Ryegrass, Italian among some compounds

chemical-structure	Plant response rating, Ryegrass, Italian
C[C@H]1CN(C(=O)c2cc(I)cc(-n3cncn3)c2)c2cccc(Cl)c2O1	30
C[C@H]1CN(C(=O)c2cccc(-n3cnc(Br)n3)c2)c2cccc(Cl)c2O1	70
C[C@H]1CN(C(=O)c2cc(C3CC3)cc(-n3cncn3)c2)c2cccc(Cl)c2O1	90
CC(C)c1ncn(-c2cccc(C(=O)N3C[C@H](C)Oc4c(Cl)cccc43)c2)n1	100
CCc1ccc(-n2cnc(C3CCC3)n2)cc1C(=O)N1C[C@H](C)Oc2c(Cl)cccc21	60
Cc1cccc2c1O[C@@H](C)CN2C(=O)c1cccc(-n2cnc(COC(C)C)n2)c1	50
CC(C)c1ncn(-c2ccc(OC(F)(F)F)c(C(=O)N3C[C@H](C)Oc4c(Cl)cccc43)c2)n1	60
CC(C)c1ncn(-c2ccc(C#N)c(C(=O)N3C[C@H](C)Oc4c(Cl)cccc43)c2)n1	50

====

tested on: goosegrass; test: Test A preemergence; format: in vivo, Eleusine indica; settings: 125 g ai/ha, visual injury after 10 days, 0 to 100 scale, 0 is no effect, 100 is complete control
Reported Plant response rating, Goosegrass values are given for each entry in this list.

compound	Plant response rating, Goosegrass
Cc1cccc2c1O[C@@H](C)CN2C(=O)c1cc(-n2cncn2)ccc1F [Compound 50]	90
COc1ccc(-n2cnc(C)n2)cc1C(=O)N1C[C@H](C)Oc2c(Cl)cccc21 [Compound 89]	100
Cc1cccc2c1O[C@@H](C)CN2C(=O)c1cc(-n2cncn2)ccc1Cl [Compound 60]	100
C#CCOc1ccc(-n2cnc(C(C)C)n2)cc1C(=O)N1C[C@H](C)Oc2c(Cl)cccc21 [Compound 107]	100
C[C@H]1CN(C(=O)c2cccc(-n3cnc(CC4CCCCC4)n3)c2)c2cccc(Cl)c2O1 [Compound 90]	0
CCc1ncn(-c2cccc(C(=O)N3C[C@H](C)Oc4c(C)cccc43)c2)n1 [Compound 71]	100
CCc1ncn(-c2ccc(C)c(C(=O)N3C[C@H](C)Oc4c(C)cccc43)c2)n1 [Compound 98]	100
Cc1ccc(-n2cncn2)cc1C(=O)N1C[C@H](C)Oc2c(C)cccc21 [Compound 57]	90
CC(C)Oc1ccc(-n2cnc(C(C)C)n2)cc1C(=O)N1C[C@H](C)Oc2c(Cl)cccc21 [Compound 108]	100
CCc1ncn(-c2cccc(C(=O)N3C[C@H](C)Oc4c(Cl)cccc43)c2)n1 [Compound 91]	100
C[C@H]1CN(C(=O)c2cccc(-n3cncn3)c2)c2cccc(OC(F)(F)F)c2O1 [Compound 48]	40
Cc1cccc2c1O[C@@H](C)CN2C(=O)c1cccc(-n2cnc(Cl)n2)c1 [Compound 69]	90
Cc1cccc2c1O[C@@H](C)CN2C(=O)c1cccc(-n2cnc(C(F)(F)F)n2)c1 [Compound 66]	100
CCc1ccc(-n2cnc(C(C)(C)C)n2)cc1C(=O)N1C[C@H](C)Oc2c(Cl)cccc21 [Compound 102]	100
C[C@H]1CN(C(=O)c2cccc(-n3cncn3)c2)c2cccc(C(F)(F)F)c2O1 [Compound 47]	80
CCc1ncn(-c2ccc(CC)c(C(=O)N3C[C@H](C)Oc4c(Cl)cccc43)c2)n1 [Compound 95]	100
Cc1cccc2c1O[C@@H](C)CN2C(=O)c1cccc(-n2cncn2)c1F [Compound 53]	0

====

system: foxtail, giant; assay: Test A postemergence; format: in vivo, Setaria faberi; details: 500 g ai/ha, Postemergence; 0 to 100 scale

compound	Plant response rating, Foxtail, Giant
Cc1cc(F)cc2c1OC(C)CN2C(=O)c1cccc(-n2cncn2)c1 (centres unmarked)	90
CC1CN(C(=O)c2cc(-n3cncn3)ccc2F)c2cccc(Cl)c2O1 (centres unmarked)	90
CCC1CN(C(=O)c2cncc(-n3cncn3)c2)c2cccc(Cl)c2O1 (racemic)	10
CC1CN(C(=O)c2cccc(-n3cncn3)c2)c2c(F)cccc2O1 (centres unmarked)	70
Cc1ccc(C(=O)N2CC(C)Oc3c(Cl)cccc32)cc1-n1cncn1 (centres unmarked)	90

====

tested on: barnyardgrass; test: Test C postemergence; type: in vivo, Echinochloa crusgalli; conditions: Postemergence, 125 g ai/ha; 0 to 100 scale (0 no effect, 100 complete control), 10 days

molecule	Plant response rating, Barnyardgrass
CC(C)c1ncn(-c2ccc(OS(=O)(=O)C(F)(F)F)c(C(=O)N3C[C@H](C)Oc4c(Cl)cccc43)c2)n1	10
Cc1ncn(-c2ccc(C)c(C(=O)N3CC(C(F)(F)F)Oc4c(Cl)cccc43)c2)n1 (stereo not shown)	30
Cc1cccc2c1O[C@@H](C)CN2C(=O)c1cccc(-n2cnc(N)n2)c1	10
CCOC[C@H]1CN(C(=O)c2cc(-n3cnc(C4CCC4)n3)cc3c2OCCO3)c2cccc(Cl)c2O1	20

====

Readings of Plant response rating, Horseweed for the listed compounds
tested on: horseweed; assay: Test C postemergence; format: in vivo, Erigeron canadensis; conditions: Postemergence, 125 g ai/ha; 0 to 100 scale (0 no effect, 100 complete control), 10 days
measured-parameter: Plant response rating, Horseweed

compound	measured-parameter	recorded-measurement
COC(C)c1ncn(-c2ccc(C)c(C(=O)N3CC(C)Oc4c(Cl)cccc43)c2)n1 (mixture of isomers)	Plant response rating, Horseweed	70
Cc1ncc(-c2cccc(C(=O)N3C[C@H](C)Oc4c(Cl)cccc43)c2)o1	Plant response rating, Horseweed	0
Cc1ncn(-c2cc(C(=O)N3CC(C(F)(F)F)Oc4c(Cl)cccc43)ccn2)n1 (centres unmarked)	Plant response rating, Horseweed	0
COC(C)(C)c1ncn(-c2ccc(C)c(C(=O)N3C[C@H](C)Oc4c(Cl)cccc43)c2)n1	Plant response rating, Horseweed	30
COC(=O)c1ncn(-c2ccc(C)c(C(=O)N3C[C@H](C)Oc4c(Cl)cccc43)c2)n1	Plant response rating, Horseweed	0
Cc1ccc(-n2cncn2)cc1C(=O)N1CC(C(F)(F)F)Oc2c(Cl)cccc21 (centres unmarked)	Plant response rating, Horseweed	0
CCc1ncn(-c2cc(C(=O)N3CC(C(F)(F)F)Oc4c(C)cccc43)ccn2)n1 (centres unmarked)	Plant response rating, Horseweed	0
Cc1cccc2c1O[C@@H](C)CN2C(=O)c1cccc(-n2cnc(N)n2)c1	Plant response rating, Horseweed	20

====

tested on: barnyardgrass; test: Test C postemergence; format: in vivo, Echinochloa crusgalli; conditions: 125 g ai/ha, postemergence, 10 days; 0 to 100 scale, 0 no effect, 100 complete control
Measured Plant response rating, Barnyardgrass accompanies every entry in the list below.
measured-parameter: Plant response rating, Barnyardgrass

compound	measured-parameter	recorded-measurement
Cc1cc(-n2cnc(C(C)C)n2)cc(C(=O)N2C[C@H](C)Oc3c(Cl)cccc32)c1F [Compound 223]	Plant response rating, Barnyardgrass	20
C[C@H]1CN(C(=O)c2cc(-n3cnc(C(C)(C)C)n3)cc3c2OCCO3)c2cccc(Cl)c2O1 [Compound 154]	Plant response rating, Barnyardgrass	20
Cc1ccc(-n2cnc(C(C)C)n2)cc1C(=O)N1CC(C(F)(F)F)Oc2c(Cl)cccc21 (single isomer, unassigned) [Compound 292]	Plant response rating, Barnyardgrass	10
CCc1ccc(-n2cnc(C(C)(C)O)n2)cc1C(=O)N1C[C@H](C)Oc2c(Cl)cccc21 [Compound 277]	Plant response rating, Barnyardgrass	100
COc1ccc(-n2cncn2)cc1C(=O)N1C[C@H](C)Oc2ccccc21 [Compound 228]	Plant response rating, Barnyardgrass	60
Cc1ccc(-n2cnc(C(C)C)n2)cc1C(=O)N1C[C@H](C)Oc2c1cccc2C(F)(F)F [Compound 170]	Plant response rating, Barnyardgrass	20
Cc1ccc(-n2cnc(C3(O)CCCC3)n2)cc1C(=O)N1C[C@H](C)Oc2c(Cl)cccc21 [Compound 193]	Plant response rating, Barnyardgrass	40
Cc1cccc2c1O[C@@H](C)CN2C(=O)c1cc(-n2cnc(C(C)C)n2)cc2occc12 [Compound 195]	Plant response rating, Barnyardgrass	30

====

test system: soybean; experiment: Test C preemergence; assay type: in vivo, Glycine max; settings: Preemergence, 500 g ai/ha; visual rating after 10 days, 0 to 100 scale (0 no effect, 100 complete control)

chemical-structure	Plant response rating, Soybean
Cc1cccc2c1O[C@@H](C)CN2C(=O)c1cc(-n2cnc(C(C)C)n2)cc2ccoc12	90
CC(C)c1ncn(-c2cc3c(c(C(=O)N4C[C@H](C)Oc5c(Cl)cccc54)c2)OCO3)n1	100
CCc1c(C)cc(-n2cnc(C(C)C)n2)cc1C(=O)N1C[C@H](C)Oc2c(Cl)cccc21	0
CCc1ncn(-c2ccc(C)c(C(=O)N3C[C@H](COC)Oc4c(Cl)cccc43)c2)n1	90
CC(C)c1ncn(-c2cc(OC(F)F)c(OC(F)F)c(C(=O)N3C[C@H](C)Oc4c(Cl)cccc43)c2)n1	0
COc1cc(-n2cnc(C(C)C)n2)cc(C(=O)N2C[C@H](C)Oc3c(Cl)cccc32)c1OC	10
Cc1cc(-n2cnc(C(C)C)n2)cc(C(=O)N2C[C@H](C)Oc3c(Cl)cccc32)c1C	100
CCc1ncn(-c2ccc(OC)c(C(=O)N3C[C@H](COC)Oc4c(Cl)cccc43)c2)n1	70
